Each recorded value in this set is attributed to the NIST ThermoML archive (doi:10.1016/j.jct.2016.07.021).

experiment: activity coefficient (dimensionless); of the first substance listed, at infinite dilution; xn = mol fraction of the nth substance listed; conditions: 333.15 K; 101.33 kPa; Liquid; Chromatography; x1 = 0
parameter measured: activity coefficient
Numbers only.

CCCCC [pentane] + CCCCCCn1cc[n+](C)c1C.O=S(=O)([N-]S(=O)(=O)C(F)(F)F)C(F)(F)F
5.45
CC(C)=O [acetone] + CCCCCCn1cc[n+](C)c1C.O=S(=O)([N-]S(=O)(=O)C(F)(F)F)C(F)(F)F
0.43
c1ccccc1 [benzene] + CCCCCCn1cc[n+](C)c1C.O=S(=O)([N-]S(=O)(=O)C(F)(F)F)C(F)(F)F
0.74
ClC(Cl)Cl [trichloromethane] + CCCCCCn1cc[n+](C)c1C.O=S(=O)([N-]S(=O)(=O)C(F)(F)F)C(F)(F)F
0.79
CCCCCC [hexane] + CCCCCCn1cc[n+](C)c1C.O=S(=O)([N-]S(=O)(=O)C(F)(F)F)C(F)(F)F
7.16

Take each entry in turn and give its activity coefficient.
1. ClC(Cl)(Cl)Cl [tetrachloromethane] + CCCCCCn1cc[n+](C)c1C.O=S(=O)([N-]S(=O)(=O)C(F)(F)F)C(F)(F)F
2. CCc1ccccc1 [ethylbenzene] + CCCCCCn1cc[n+](C)c1C.O=S(=O)([N-]S(=O)(=O)C(F)(F)F)C(F)(F)F

Found:
1: 2.19; 2: 1.38
